Record: compiled IC50 on UniProt:P43490 from multiple reports.
Sequence (P43490 whole entry): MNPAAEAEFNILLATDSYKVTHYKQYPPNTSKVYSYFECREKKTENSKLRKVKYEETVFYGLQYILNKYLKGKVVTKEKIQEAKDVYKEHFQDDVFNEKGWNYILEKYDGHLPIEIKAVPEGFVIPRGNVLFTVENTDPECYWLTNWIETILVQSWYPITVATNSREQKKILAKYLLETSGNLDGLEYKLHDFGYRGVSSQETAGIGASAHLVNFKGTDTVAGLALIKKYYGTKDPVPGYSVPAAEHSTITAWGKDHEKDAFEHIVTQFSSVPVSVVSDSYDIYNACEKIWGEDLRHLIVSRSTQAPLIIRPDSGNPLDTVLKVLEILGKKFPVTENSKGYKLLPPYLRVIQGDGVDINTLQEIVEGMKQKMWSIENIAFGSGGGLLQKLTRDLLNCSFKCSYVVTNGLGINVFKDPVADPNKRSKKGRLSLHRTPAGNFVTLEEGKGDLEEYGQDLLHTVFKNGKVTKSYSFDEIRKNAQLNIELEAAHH
assay_endpoint: IC50 (nM)

Past entries and their recorded results:
{"columns": ["molecule", "unit_of_measure", "IC50"],
 "data": [
  ["O=C(Nc1ccc(OC2CCN(C(=O)C3CCCC3)CC2)cc1)C1CN(c2cccnc2)C1", "nM", 0.696],
  ["CC(C)C(=O)N1CCC(c2ccc(C(=O)NCc3ccn4ccnc4c3)s2)C1 (stereo not shown)", "nM", 0.448],
  ["CC1(Cn2cc(-c3ccc(C(=O)NCc4ccn5ccnc5c4)o3)cn2)CCOCC1", "nM", 0.605],
  ["O=C(Nc1ccc(C2CCN(C(=O)CN3CCCC3)CC2)cc1)C1CN(c2cccnc2)C1", "nM", 0.244]
]}

[a] Cc1ncccc1N1CC(C(=O)Nc2ccc(C3CCN(C(=O)C(C)C)CC3)cc2)C1
[b] COCCCNC(=O)N(Cc1ccc(C#N)cc1)c1ncc(C(=O)NCCCn2ccnc2)s1
Field: lower recorded IC50 (choose a or b ) Lab log: write the label of the selected item as the result.
a
(a: 16.7 nM, b: 630 nM)

[a] O=C(CCCCCCCNc1c(Nc2ccncc2)c(=O)c1=O)N1CCC(O)CC1
[b] N#Cc1ccc(CN(C(=O)CC2CCCC2)c2ccc(C(=O)NCc3ccc4nccn4c3)cc2)cc1
Field: lower recorded IC50 (choose a or b ) Lab log: write the label of the selected item as the result.
b
(b: 3.04 nM, a: 16 nM)
